Numbers sourced from patent US4568690A.

Hi there, I'd appreciate the recorded Oedema inhibition % for every entry that follows.
# Test system: carragenin-induced edema
# assay comment: carragenin-induced edema test (antinflammatory activity)
# Assay type: in vivo, rats
# details: os, 100 mg/kg, 6 h
One number for each entry, in %.

These recorded examples may help you get a feel for the data.
Cc1ccc(C(=O)c2ccc(CC(=O)NCC(=O)Nc3cccc(Cl)c3)n2C)cc1 = 59.8
Cc1ccc(C(=O)c2ccc(CC(=O)O)n2C)cc1 [Tolmetin Na.2H2 O, reference compound] = 54.3
COc1ccccc1NC(=O)CNC(=O)Cc1ccc(C(=O)c2ccc(C)cc2)n1C = 66.0
COc1ccc(OC)c(NC(=O)CNC(=O)Cc2ccc(C(=O)c3ccc(C)cc3)n2C)c1 = 70.0

// query Oedema inhibition % value for entry `Cc1ccc(C(=O)c2ccc(CC(=O)NCC(=O)Nc3cccc(C)c3C)n2C)cc1`
69.0
